src = patent US6624174B2

Assignment: determine reported melting point for the given compounds.

Which melting point reading was recorded for the compound `COc1ccc(CNc2ncccc2C(=O)Nc2ccc(Br)c(C(F)(F)F)c2)cn1` ?
123 to 125 °C

Which melting point reading was recorded for the compound `Cc1c(NC(=O)c2cccnc2NCc2ccncc2)cccc1C(F)(F)F` ?
146 to 147 °C

Which melting point reading was recorded for the compound `O=C(Nc1ccc(C(F)(F)F)c(C(F)(F)F)c1)c1cccnc1NCc1ccncc1` ?
194 to 196 °C

Which melting point reading was recorded for the compound `CC#Cc1ccc(NC(=O)c2cccnc2NCc2ccc(=O)[nH]c2)cc1C(F)(F)F` ?
211 to 218 °C

Which melting point reading was recorded for the compound `CC(C)(C)[C@H]1CC[C@H](NC(=O)c2cccnc2NCc2ccncc2)CC1` ?
165 to 167 °C
